Measured values drawn from PubChem BioAssay AID1963974 for this set.

Tested on: 648629-189-R-J1-PDC spheroids with HUVEC/MSC, viability
Experiment: Anticancer human tumor 648629-189-R-J1-PDC patient-derived bladder carcinoma cell line growth inhibition [PI3K]
Conditions: second compound 0.1 µM; first compound 0.0316 µM; stronger effect = lower value
# reported viability, T/C; entries follow

Example molecules with recorded viability, T/C:
Ask: Requested field: viability, T/C. Item: Cn1ncc(Cl)c1-c1cc(C(=O)NC(CN)Cc2cccc(F)c2)sc1Cl (stereo not drawn) + Cc1nc(NC(=O)N2CCCC2C(N)=O)sc1-c1ccnc(C(C)(C)C(F)(F)F)c1
Reply: 90.8%

Ask: Any idea what its viability, T/C is? The molecule is CC(=O)c1c(C)c2cnc(Nc3ccc(N4CCNCC4)cn3)nc2n(C2CCCC2)c1=O + CC(Nc1ccc2c(c1)OCCn1cc(N3C(=O)OCC3C(F)F)nc1-2)C(N)=O
Reply: 96.2%

Could you now look at the following molecule, please?
Ask: Can you share its viability, T/C? I mean this molecule: CC(C)n1nc(-c2ccc3oc(N)nc3c2)c2c(N)ncnc21 + CC(Nc1ccc2c(c1)OCCn1cc(N3C(=O)OCC3C(F)F)nc1-2)C(N)=O
Reply: 72.5%

----------
Known viability, T/C of a selection of compounds
Tested on: 648629-189-R-J1-PDC spheroids with HUVEC/MSC, viability
Assay: Anticancer human tumor 648629-189-R-J1-PDC cell line growth inhibition [PI3K];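 further: spheroids exposed to agents for seven days before reading; percent of vehicle control luminescence where 100% = DMSO treated spheroids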
Conditions: second compound 0.00316 µM; first compound 0.01 µM; stronger effect = lower value
Unit % implied. Number only.

See these solved cases before continuing.
Ask: Identify the measured viability, T/C of CC(=O)c1c(C)c2cnc(Nc3ccc(N4CCNCC4)cn3)nc2n(C2CCCC2)c1=O + COc1c(OCCCN2CCOCC2)ccc2c3n(c(=NC(=O)c4cnc(N)nc4)nc12)CCN3 for 648629-189-R-J1-PDC spheroids with HUVEC/MSC, viability.
Reply: 101

Ask: Any idea what viability, T/C came out for Cn1ncnc1[C@H]1c2n[nH]c(=O)c3cc(F)cc(c23)N[C@@H]1c1ccc(F)cc1 + COc1c(OCCCN2CCOCC2)ccc2c3n(c(=NC(=O)c4cnc(N)nc4)nc12)CCN3 on 648629-189-R-J1-PDC spheroids with HUVEC/MSC, viability?
Reply: 88.5

Ask: // lookup viability, T/C | system=648629-189-R-J1-PDC spheroids with HUVEC/MSC, viability | key= CC(C)n1nc(-c2ccc3oc(N)nc3c2)c2c(N)ncnc21 + CC(Nc1ccc2c(c1)OCCn1cc(N3C(=O)OCC3C(F)F)nc1-2)C(N)=O
Reply: 90

More entries:
Ask: API: value(readout=viability, T/C, system=648629-189-R-J1-PDC spheroids with HUVEC/MSC, viability) for record CC(=O)c1c(C)c2cnc(Nc3ccc(N4CCNCC4)cn3)nc2n(C2CCCC2)c1=O + CC(Nc1ccc2c(c1)OCCn1cc(N3C(=O)OCC3C(F)F)nc1-2)C(N)=O
Reply: 95.5

Ask: Param readout = viability, T/C; param system = 648629-189-R-J1-PDC spheroids with HUVEC/MSC, viability; param query = CCN1CCN(Cc2ccc(Nc3ncc(F)c(-c4cc(F)c5nc(C)n(C(C)C)c5c4)n3)nc2)CC1 + CC(Nc1ccc2c(c1)OCCn1cc(N3C(=O)OCC3C(F)F)nc1-2)C(N)=O ; response: value
Reply: 98.8
